Reported CD28 scFv signal in presence of CD28 values for the following binders.
# target.or.test.system: T1, Anti-CD28 scFv (VH - linker 1 - VL) (biotinylated (site not stated))
# T1 construct: Captured as biotinylated scFv on neutravidin plates in the panning ELISA
# T1 sequence (scFv, as listed by the source): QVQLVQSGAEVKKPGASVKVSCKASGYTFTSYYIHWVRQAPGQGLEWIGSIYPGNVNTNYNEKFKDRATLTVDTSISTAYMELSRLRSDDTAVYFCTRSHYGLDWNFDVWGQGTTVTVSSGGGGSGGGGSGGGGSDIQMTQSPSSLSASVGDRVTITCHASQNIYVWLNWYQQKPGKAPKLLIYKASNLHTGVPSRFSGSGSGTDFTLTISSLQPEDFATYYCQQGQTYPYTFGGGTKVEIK
# experiment: phage ELISA as above, wells pre-incubated with soluble CD28 (competitor);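 note: ELISA of crude clonal phage supernatants added to wells pre-treated with soluble CD28 in blocking buffer, bound phage read out with HRP-conjugated anti-M13 antibody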

> print(dat)
                       binder  recorded.result
1  MHWCPTYMWSECFA [Phage-400]            0.161

Lab book: CD28 scFv signal in presence of CD28 of LYWCPRDMWAYCYS [Phage-414] noted as 0.157

Recorded CD28 scFv signal in presence of CD28 (binder MDWCPMSMWAFCFD [Phage-405] ): 0.16

// field: CD28 scFv signal in presence of CD28; key: MDWCPRYMWSDCFF [Phage-394] ; value = 0.377

Looking up IDWCPMHMWDFCYN [Phage-390] , I found its CD28 scFv signal in presence of CD28 recorded as 0.232

Just so you know, measured CD28 scFv signal in presence of CD28 for MDWCPRDMWTSCFN [Phage-404] came out at 0.179

So for MDWCPRHMWHECFH [Phage-402] , the logged CD28 scFv signal in presence of CD28 turned out to be 0.171

Field CD28 scFv signal in presence of CD28 (entry MDWCPLDMWVLCFA [Phage-401] ) reads 0.169

# credit: patent US20260242478A1
